- testSummary: protein stability index of a GFP-peptide fusion (GPS, HEK-293T) (PSI 1-6); higher = more stable;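 also: 24-mer peptide tiles fused after GFP, lentivirally expressed, FACS-sorted into six equal bins by GFP/DsRed ratio, decoded by Illumina sequencing, PSI is the read-weighted mean bin number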
- conditionInfo: treatment: MLN4924 1 uM, 8 h; c terminus: a fixed tail appended
Parameter threshold = 4. Response is condition met when protein stability index meets or exceeds it, else condition not met.

Worked set:
biopolymerSequence	labelValue
ETRVTSGSMEALNLKQLRKRGSIP [PPFIA4]	condition met
PFPAGPLAVAGGPRKTAAPVNALV [ESRRA]	condition not met
STRVCLQPIRGVEGSDYINASFID [PTPRD]	condition not met

// next entry
For this sequence, is measured protein stability index 4 or higher? DALNAYVCKGLPQHEEICLGLFTL [INTS3]
condition not met
